Recorded pIC50 by entry
Target: GST-tagged recombinant human TYRO3 kinase domain (Homo sapiens (Human))
Sequence (Q06418 518-790): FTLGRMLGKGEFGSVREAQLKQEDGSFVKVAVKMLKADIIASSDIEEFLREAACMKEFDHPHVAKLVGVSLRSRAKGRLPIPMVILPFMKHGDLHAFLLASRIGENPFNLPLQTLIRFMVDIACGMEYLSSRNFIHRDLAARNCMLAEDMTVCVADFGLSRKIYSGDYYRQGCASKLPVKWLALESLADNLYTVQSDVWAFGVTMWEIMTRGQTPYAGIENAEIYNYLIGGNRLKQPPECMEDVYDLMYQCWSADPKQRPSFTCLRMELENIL
Experiment description: TYRO3 Enzyme Assay (LanthaScreen Eu Kinase Binding, TR-FRET)
Recorded conditions: averaged IC50
pIC50: −log10 of the molar value.

>  <Compound>
CCNc1cc2c(cn1)c(-c1ccc(CN3CCN(C)CC3)cc1)nn2[C@H]1CC[C@@H](Oc2cnn(C)c2C(F)(F)F)CC1

>  <pIC50>
7.00 to 8.00

$$$$
>  <Compound>
CCNc1cc2c(cn1)c(-c1ccn(CCN3CCOCC3)n1)nn2[C@H]1CC[C@@H](Oc2ccc(=O)n(C)n2)CC1

>  <pIC50>
5.00 to 6.00

$$$$
>  <Compound>
CCNc1cc2c(cn1)c(-c1cnn(C[C@@H](O)C(C)(C)O)c1)nn2[C@H]1CC[C@@H](Oc2cn(C)nc2C(F)(F)F)CC1

>  <pIC50>
> 8.00

$$$$
>  <Compound>
CCNc1cc2c(cn1)c(N1CC[C@@H](N(C)C)C1)nn2[C@H]1CC[C@@H](Oc2nccc(C(F)(F)F)c2F)CC1 (stereo in doubt)

>  <pIC50>
> 8.00

$$$$
>  <Compound>
CNc1cc2c(cn1)c(-c1cnn(C)c1)nn2[C@H]1CC[C@@H](Oc2ccc(C#N)cn2)CC1

>  <pIC50>
5.00 to 6.00

$$$$
>  <Compound>
CNc1cc2c(cn1)c(-c1cnn(C(CO)CO)c1)nn2[C@H]1CC[C@@H](Oc2ccccc2F)CC1

>  <pIC50>
7.00 to 8.00

$$$$
>  <Compound>
CCNc1cc2c(cn1)c(C1CCN(C3CCN(C)CC3)CC1)nn2[C@H]1CC[C@@H](Oc2nccc(C(F)(F)F)c2F)CC1

>  <pIC50>
> 8.00

$$$$
>  <Compound>
CNc1cc2c(cn1)c(-c1cnn(C)c1)nn2[C@H]1CC[C@@H](Oc2cccc(C(=O)NC(C)C)c2F)CC1

>  <pIC50>
5.00 to 6.00

$$$$
